System: 885512-296-R-J2-PDC complex spheroid growth, % test/control
experiment.description: Anticancer human tumor 885512-296-R-J2-PDC patient-derived breast carcinoma cell line growth inhibition [AhR]; active means viability on the fitted dose curve at most 10% of control; inactive means the rest
experimental.conditions: second compound 0.316 µM; first compound 0.316 µM
Could you please pick one outcome from this set? YES = active, NO = inactive

* O=C(C=Cc1cccc(S(=O)(=O)Nc2ccccc2)c1)NO + Cc1cncc(-c2nc(NCCc3c[nH]c4ccccc34)c3ncn(C(C)C)c3n2)c1 | NO
* COc1cc(C2c3cc4c(cc3C(OC3OC5COC(C)OC5C(O)C3O)C3COC(=O)C23)OCO4)cc(OC)c1O (stereo not drawn) + Cc1cncc(-c2nc(NCCc3c[nH]c4ccccc34)c3ncn(C(C)C)c3n2)c1 | NO
* O=C(c1cc(Cc2n[nH]c(=O)c3ccccc23)ccc1F)N1CCN(C(=O)C2CC2)CC1 + Cc1ccccc1N=Nc1ccc(NC(=O)c2ccnn2C)c(C)c1 | NO
* Nc1ccn(C2OC(CO)C(O)C2(F)F)c(=O)n1 (stereo not drawn) + Cc1cncc(-c2nc(NCCc3c[nH]c4ccccc34)c3ncn(C(C)C)c3n2)c1 | YES
* COc1cccc2c1C(=O)c1c(O)c3c(c(O)c1C2=O)CC(O)(C(=O)CO)CC3OC1CC(N)C(O)C(C)O1 (stereo not drawn) + CC(CO)NC(=O)c1cc(-c2ccc(Cl)cc2)nn(-c2cnn(C)c2)c1=O | YES
* COc1cc(C2c3cc4c(cc3C(OC3OC5COC(C)OC5C(O)C3O)C3COC(=O)C23)OCO4)cc(OC)c1O (stereo not drawn) + CC(CO)NC(=O)c1cc(-c2ccc(Cl)cc2)nn(-c2cnn(C)c2)c1=O | NO
* CC1COCCN1c1cc(-c2ccnn2C)c2ccnc(-c3ccn[nH]3)c2n1 (stereo not drawn) + Cc1ccccc1N=Nc1ccc(NC(=O)c2ccnn2C)c(C)c1 | YES
* NS(=O)(=O)OCC1CC(n2ccc3c(NC4CCc5ccccc54)ncnc32)CC1O (stereo not drawn) + CC(CO)NC(=O)c1cc(-c2ccc(Cl)cc2)nn(-c2cnn(C)c2)c1=O | NO

Problem: Hi, sorry to bother you, what did the test record for O=C(C=Cc1cccc(S(=O)(=O)Nc2ccccc2)c1)NO + Cc1ccccc1N=Nc1ccc(NC(=O)c2ccnn2C)c(C)c1 ?
Result: NO

Problem: Hi, sorry to bother you, what did the test record for COc1cccc2c1C(=O)c1c(O)c3c(c(O)c1C2=O)CC(O)(C(=O)CO)CC3OC1CC(N)C(O)C(C)O1 (stereo not drawn) + Cc1cncc(-c2nc(NCCc3c[nH]c4ccccc34)c3ncn(C(C)C)c3n2)c1 ?
Result: YES

Problem: Hi, sorry to bother you, what did the test record for NS(=O)(=O)OCC1CC(n2ccc3c(NC4CCc5ccccc54)ncnc32)CC1O (stereo not drawn) + Cc1cncc(-c2nc(NCCc3c[nH]c4ccccc34)c3ncn(C(C)C)c3n2)c1 ?
Result: NO

Problem: Hi, sorry to bother you, what did the test record for CC(C)c1c(-c2ccccc2)nc2c(C#N)c[nH]n2c1=O + Cc1ccccc1N=Nc1ccc(NC(=O)c2ccnn2C)c(C)c1 ?
Result: NO

====

Test system: 885512-296-R-J2-PDC complex spheroid growth, % test/control
experiment.description: Anticancer human tumor 885512-296-R-J2-PDC cell line growth inhibition [AhR];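 further: spheroids exposed to compounds for seven days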
experimental.conditions: second compound 10 µM; first compound 0.03 µM; stronger effect = lower value
Entries and their viability, T/C

- Nc1ncn(C2CC(O)C(CO)S2)c(=O)n1 (configuration not stated) + Cc1ccccc1N=Nc1ccc(NC(=O)c2ccnn2C)c(C)c1: 61.1%
- O=C(C=Cn1cnc(-c2cc(C(F)(F)F)cc(C(F)(F)F)c2)n1)NNc1cnccn1 + Cc1ccccc1N=Nc1ccc(NC(=O)c2ccnn2C)c(C)c1: 64.4%
- CCN(c1cc(-c2ccc(CN3CCOCC3)cc2)cc(C(=O)NCc2c(C)cc(C)[nH]c2=O)c1C)C1CCOCC1 + CC(CO)NC(=O)c1cc(-c2ccc(Cl)cc2)nn(-c2cnn(C)c2)c1=O: 97.5%
- O=C(C=Cn1cnc(-c2cc(C(F)(F)F)cc(C(F)(F)F)c2)n1)NNc1cnccn1 + CC(CO)NC(=O)c1cc(-c2ccc(Cl)cc2)nn(-c2cnn(C)c2)c1=O: 107%
- CCN(c1cc(-c2ccc(CN3CCOCC3)cc2)cc(C(=O)NCc2c(C)cc(C)[nH]c2=O)c1C)C1CCOCC1 + Cc1cncc(-c2nc(NCCc3c[nH]c4ccccc34)c3ncn(C(C)C)c3n2)c1: 24.6%

The compound Nc1ncn(C2CC(O)C(CO)S2)c(=O)n1 (configuration not stated) + Cc1cncc(-c2nc(NCCc3c[nH]c4ccccc34)c3ncn(C(C)C)c3n2)c1 showed viability, T/C equal to 15%

The compound CC(C)CC(NC(=O)C(Cc1ccccc1)NC(=O)c1cnccn1)B(O)O (configuration not stated) + Cc1cncc(-c2nc(NCCc3c[nH]c4ccccc34)c3ncn(C(C)C)c3n2)c1 showed viability, T/C equal to 0.43%

The compound CCN(c1cc(-c2ccc(CN3CCOCC3)cc2)cc(C(=O)NCc2c(C)cc(C)[nH]c2=O)c1C)C1CCOCC1 + Cc1ccccc1N=Nc1ccc(NC(=O)c2ccnn2C)c(C)c1 showed viability, T/C equal to 62.3%
